Across several studies, molecules have been characterized by their IC50 on UniProt:O00329; a selection follows.
Measured Property: IC50

| Molecule | Endpoint Value |
| --- | --- |
| NCC(=O)N1CCN(c2cnc3ccc(-c4ccc5oc(N)nc5c4)nc3n2)CC1 | < 10000 nM |
| Cc1nn(C(C)c2cc(Cl)c(F)c3c2OC(C)CN(C2CN(C(=O)OC(C)(C)C)C2)C3)c2ncnc(N)c12 (single isomer, unassigned) | ≤ 100 nM |
| CCN(C(C)C(C)(C)O)[C@H]1CC[C@H](CNc2nc(N3CCOCC3)cc(-n3c(C(F)F)nc4ccccc43)n2)CC1 (stereo partly shown) | 8.1 nM |
| Cc1nn(C(C)c2cc(Cl)c(F)c3c2OC(C)CN(C2CN(S(C)(=O)=O)C2)C3)c2ncnc(N)c12 (stereo not shown) | ≤ 100 nM |

###

Across several studies, molecules have been characterized by their IC50 on PIK3CD (Human) (UniProt O00329); a selection follows.

| Molecule | Tested Target | IC50 |
| --- | --- | --- |
| Cc1ccccc1-n1c(Cn2nc(-c3cccc(O)c3)c3c(N)ncnc32)cc2ccccc2c1=O | PIK3CD (Human) (UniProt O00329) | < 100 nM |
| CC(=O)Nc1nc2ccc(-c3nn(Cc4cc5cccc(C)c5c(=O)n4C4CCC4)c4ncnc(N)c34)cc2s1 | PIK3CD (Human) (UniProt O00329) | < 100 nM |
| CN1CCN(CCc2nnc3ccc(-c4ccc5nc(N)oc5c4)cn23)CC1 | PIK3CD (Human) (UniProt O00329) | > 10000 nM |
| Cc1csc2nc(Cn3nc(-c4cc(O)cc(F)c4)c4c(N)ncnc43)n(-c3ccccc3Cl)c(=O)c12 | PIK3CD (Human) (UniProt O00329) | < 100 nM |
| Cc1ccccc1-n1c(Cn2nc(-c3cc(O)cc(F)c3)c3c(N)ncnc32)cc2ccccc2c1=O | PIK3CD (Human) (UniProt O00329) | < 100 nM |
| Cn1ncc2c(-c3cccc4[nH]ccc34)nc(N3CCOCC3)nc21 | PIK3CD (Human) (UniProt O00329) | 100 to 10000 nM |
| Cc1cccc2cc([C@@H](C)Nc3ncnc4[nH]cnc34)n(C3CCC3)c(=O)c12 | PIK3CD (Human) (UniProt O00329) | > 10000 nM |
| Cc1nn(C(C)c2cc(Cl)c(F)c3c2OCCN(C2CN(S(=O)(=O)N(C)C)C2)C3)c2ncnc(N)c12 (stereo not drawn) | PIK3CD (Human) (UniProt O00329) | ≤ 100 nM |
| C[C@H](Nc1ncnc2[nH]cnc12)c1cc2cccc(Cl)c2c(C(=O)N2CCC(F)(F)C2)n1 | PIK3CD (Human) (UniProt O00329) | < 100 nM |

###

Across several studies, compounds have been characterized by their IC50 on PIK3CD (Human) (UniProt O00329); a selection follows.
Measured Property: IC50

| Compound | Endpoint Value |
| --- | --- |
| C[C@@H](N)C(=O)N1CCN(c2cnc3ccc(-c4ccc5oc(N)nc5c4)nc3n2)CC1 | < 10 µM |
| Nc1nc2cc(-c3ccc4ncc(-c5cn[nH]c5)n4c3)ccc2o1 | < 0.1 µM |
| Cc1cccc2cc(C(C)Nc3ncnc4[nH]cnc34)n(CCN3CCCC3)c(=O)c12 (stereo not shown) | < 0.1 µM |
| Nc1nn2cccnc2c1C(=O)NCc1cc2cccc(Cl)c2c(=O)n1-c1ccccc1 | > 10 µM |
